Entries and their measured pIC50 follow.
# measured target: Kir3.1/Kir3.2 (Homo sapiens, UniProt P48051+P48549)
# Sequence (P48549 whole entry): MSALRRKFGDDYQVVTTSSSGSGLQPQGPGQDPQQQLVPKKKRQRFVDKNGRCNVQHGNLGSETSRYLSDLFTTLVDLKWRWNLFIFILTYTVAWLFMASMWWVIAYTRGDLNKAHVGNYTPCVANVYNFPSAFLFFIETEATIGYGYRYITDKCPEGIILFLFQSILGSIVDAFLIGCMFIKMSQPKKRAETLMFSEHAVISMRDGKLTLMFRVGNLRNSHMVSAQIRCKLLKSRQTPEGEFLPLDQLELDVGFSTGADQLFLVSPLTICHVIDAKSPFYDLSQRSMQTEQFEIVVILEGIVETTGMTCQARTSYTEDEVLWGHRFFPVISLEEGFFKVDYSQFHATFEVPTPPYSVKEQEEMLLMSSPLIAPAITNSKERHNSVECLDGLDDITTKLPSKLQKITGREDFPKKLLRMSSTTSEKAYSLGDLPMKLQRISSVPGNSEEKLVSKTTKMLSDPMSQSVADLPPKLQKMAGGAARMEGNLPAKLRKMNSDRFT
# Sequence (P48051 whole entry): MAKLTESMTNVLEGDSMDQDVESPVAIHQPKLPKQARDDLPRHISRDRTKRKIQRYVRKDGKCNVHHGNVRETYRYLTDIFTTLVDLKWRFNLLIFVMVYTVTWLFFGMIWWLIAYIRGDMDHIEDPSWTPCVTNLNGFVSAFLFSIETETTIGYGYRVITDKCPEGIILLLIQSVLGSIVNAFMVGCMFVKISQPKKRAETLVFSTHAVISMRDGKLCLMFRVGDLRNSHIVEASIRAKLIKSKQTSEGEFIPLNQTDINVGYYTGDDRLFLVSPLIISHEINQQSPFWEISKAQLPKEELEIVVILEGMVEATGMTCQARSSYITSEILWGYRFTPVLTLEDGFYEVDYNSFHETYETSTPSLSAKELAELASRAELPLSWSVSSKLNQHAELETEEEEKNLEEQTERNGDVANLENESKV
# measurement description: Inhibition of GIRK1/2 (unknown origin)
The value called pIC50 is obtained by taking minus log10 of the concentration in mol/L.

Examples with their reported pIC50 follow.
Incoming: Looking for the measured pIC50 of `O=C(Nc1ccc(F)cc1)Nc1cc(CC2CC2)nn1-c1ccccc1` , can you help?
Outgoing: 6.19

Incoming: Another compound: `O=C(Nc1ccc(F)c(Cl)c1)Nc1cc(C2CCC2)nn1-c1ccccc1`
Outgoing: 5.72

Would you kindly look at the next entry?
Incoming: // returns reported pIC50 for input `O=C(Nc1ccc(F)c(Cl)c1)Nc1cc(CC2CC2)nn1-c1ccccc1`
Outgoing: 6.09
